Every entry's value here was drawn from patent EP4371563A1.

Assay: Observed larotrectinib plasma exposure after a single oral dose with and without itraconazole or rifampicin
Type: in vivo, human
Conditions: human, plasma, po, Observed; single oral dose 100 mg larotrectinib plus itraconazole 200 mg QD (5th day of 7 days); healthy subjects
Endpoint name: Cmax (ng/mL)
Form entry: value (ng/mL) — number only.

Reported Cmax ( O=C(Nc1cnn2ccc(N3CCC[C@@H]3c3cc(F)ccc3F)nc12)N1CC[C@H](O)C1 ) = 1400

---

Experiment: Observed larotrectinib plasma exposure after a single oral dose with and without itraconazole or rifampicin
Type: in vivo, human
Settings: human, plasma, po, Observed; single oral dose 100 mg larotrectinib plus itraconazole 200 mg QD (5th day of 7 days); healthy subjects
Endpoint name: AUC (ng·h/mL)
Form entry: value (ng·h/mL) — number only.

Reported AUC ( O=C(Nc1cnn2ccc(N3CCC[C@@H]3c3cc(F)ccc3F)nc12)N1CC[C@H](O)C1 [larotrectinib] ) = 5520

---

Assay: Observed larotrectinib plasma exposure after a single oral dose with and without itraconazole or rifampicin
Type: in vivo, human
Details: human, plasma, po, 100 mg, Observed; Control: single oral dose 100 mg larotrectinib in absence of itraconazole; healthy subjects
Endpoint name: Cmax (ng/mL)
Form entry: value (ng/mL) — number only.

Reported Cmax ( O=C(Nc1cnn2ccc(N3CCC[C@@H]3c3cc(F)ccc3F)nc12)N1CC[C@H](O)C1 [larotrectinib] ) = 497

---

Experiment: Observed larotrectinib plasma exposure after a single oral dose with and without itraconazole or rifampicin
Format: in vivo, human
Details: human, plasma, po, 100 mg, Observed; Control: single oral dose 100 mg larotrectinib in absence of itraconazole; healthy subjects
Endpoint name: AUC
In your response, the unit should come after the numeric value.

Reported AUC ( O=C(Nc1cnn2ccc(N3CCC[C@@H]3c3cc(F)ccc3F)nc12)N1CC[C@H](O)C1 ) = 1280 ng·h/mL

---

Assay: Observed larotrectinib plasma exposure after a single oral dose with and without itraconazole or rifampicin
Assay type: in vivo, human
Conditions: human, plasma, po, 100 mg, Observed; Control: single oral dose 100 mg larotrectinib in absence of rifampicin
Endpoint name: Cmax (ng/mL)
Form entry: value (ng/mL) — number only.

Reported Cmax ( O=C(Nc1cnn2ccc(N3CCC[C@@H]3c3cc(F)ccc3F)nc12)N1CC[C@H](O)C1 ) = 435

---

Assay: Observed larotrectinib plasma exposure after a single oral dose with and without itraconazole or rifampicin
Type: in vivo, human
Conditions: human, plasma, po, 100 mg, Observed; Control: single oral dose 100 mg larotrectinib in absence of rifampicin
Endpoint name: AUC (ng·h/mL)
Form entry: value (ng·h/mL) — number only.

Reported AUC ( O=C(Nc1cnn2ccc(N3CCC[C@@H]3c3cc(F)ccc3F)nc12)N1CC[C@H](O)C1 [larotrectinib] ) = 1340
